target_or_system: Cathepsin D (Cat D) (Homo sapiens, UniProt P07339)
Construct: made in house; host or cells: CHO cells
Sequence (P07339 65-412, species assumed): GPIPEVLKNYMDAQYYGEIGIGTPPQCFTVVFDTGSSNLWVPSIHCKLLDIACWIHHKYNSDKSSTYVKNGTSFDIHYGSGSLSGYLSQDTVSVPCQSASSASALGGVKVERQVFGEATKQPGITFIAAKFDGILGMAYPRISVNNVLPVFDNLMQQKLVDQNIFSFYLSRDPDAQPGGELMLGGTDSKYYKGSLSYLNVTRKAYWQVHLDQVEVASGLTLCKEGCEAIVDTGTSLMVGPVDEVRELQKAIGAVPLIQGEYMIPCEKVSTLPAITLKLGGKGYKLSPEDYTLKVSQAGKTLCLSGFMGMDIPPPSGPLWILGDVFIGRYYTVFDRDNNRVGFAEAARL
procedure_summary: In vitro enzymatic Cathepsin D (Cat D) FRET assay
Assay type: biochemical
measurement_context: read-out: Cat D IC50 value
endpoint_name: IC50

The compound listed as Cc1c(C(=O)Nc2ccc(F)c([C@@]3(C)N=C(N)[C@]4(C)CC[C@H]3S4(=O)=O)c2)nc2ccc(Cl)cn12 has a reported IC50 of > 400 µM

---

What follows is a collection of pIC50 values obtained with human Bace2 protein (Homo sapiens, UniProt Q9Y5Z0).
Sequence (Q9Y5Z0 63-518): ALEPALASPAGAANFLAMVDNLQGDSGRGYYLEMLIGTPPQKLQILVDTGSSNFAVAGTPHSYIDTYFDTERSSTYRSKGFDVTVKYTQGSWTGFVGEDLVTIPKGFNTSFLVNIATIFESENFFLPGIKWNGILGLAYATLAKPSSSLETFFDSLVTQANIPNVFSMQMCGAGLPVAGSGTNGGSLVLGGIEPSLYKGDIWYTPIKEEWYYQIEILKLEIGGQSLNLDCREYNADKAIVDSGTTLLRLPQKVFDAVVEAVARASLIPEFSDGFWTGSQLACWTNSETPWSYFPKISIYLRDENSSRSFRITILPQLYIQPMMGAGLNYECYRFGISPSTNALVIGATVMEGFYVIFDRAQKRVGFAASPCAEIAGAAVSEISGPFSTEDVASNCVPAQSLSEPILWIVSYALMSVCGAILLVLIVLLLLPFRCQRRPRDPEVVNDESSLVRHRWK
Hey, just a heads up that pIC50 is the negative log base 10 of the concentration in molar.

Known pIC50 results, listed for orientation:
>>> result("CC#CCOc1cnc2c(Nc3ccc(F)c([C@@]4(C)N=C(N)[C@@]5(C)CC[C@@H]4S5(=O)=O)c3)nccc2n1 [Example 62]")
8.15
>>> result("COCCOc1cnc2c(Nc3ccc(F)c([C@@]4(C)N=C(N)[C@@]5(C)CC[C@@H]4S5(=O)=O)c3)nccc2n1 [Example 145]")
7.19
>>> result("C[C@]1(c2cc(Nc3ncnc4cc(Br)cnc34)ccc2F)N=C(N)[C@@]2(CF)CC[C@@H]1S2(=O)=O [Example 47]")
8.70

Record CC(C)(C)C#CCOc1cnc(C(=O)Nc2ccc(F)c([C@@]3(C)N=C(N)C4(CF)CCC3S4(=O)=O)c2)cn1 (stereo in doubt) [Example 38] has human Bace2 protein (Homo sapiens, UniProt Q9Y5Z0) pIC50 equal to 7.96

Record C#CCOc1cnc(C(=O)Nc2ccc(F)c([C@@]3(C)N=C(N)[C@@]4(CF)CC[C@@H]3S4(=O)=O)c2)c(C)n1 [Example 59] has human Bace2 protein (Homo sapiens, UniProt Q9Y5Z0) pIC50 equal to 8.52

Record C[C@]1(c2cc(Nc3ncnc4cc(OCC5CC5)cnc34)ccc2F)N=C(N)[C@@]2(C)CC[C@@H]1S2(=O)=O [Example 139] has human Bace2 protein (Homo sapiens, UniProt Q9Y5Z0) pIC50 equal to 7.17

Record C[C@]1(c2cc(Nc3nccc4cc(C#N)cnc34)ccc2F)N=C(N)[C@@]2(CF)CC[C@@H]1S2(=O)=O [Example 100] has human Bace2 protein (Homo sapiens, UniProt Q9Y5Z0) pIC50 equal to 9.22

Record C#CCOc1ccc(C(=O)Nc2ccc(F)c([C@@]3(C)N=C(N)[C@@]4(CF)CC[C@@H]3S4(=O)=O)c2)nc1 [Example 52] has human Bace2 protein (Homo sapiens, UniProt Q9Y5Z0) pIC50 equal to 7.74

Record COc1cnc(C(=O)Nc2ccc(F)c([C@@]3(C)N=C(N)[C@@]4(C)CC[C@@H]3S4(=O)=O)c2)cn1 [Example 61] has human Bace2 protein (Homo sapiens, UniProt Q9Y5Z0) pIC50 equal to 8.15

Record C#CCOc1cnc(C(=O)Nc2ccc(F)c([C@@]3(C)N=C(N)[C@@]4(CF)CC[C@@H]3S4(=O)=O)c2)c(Cl)c1 [Example 60] has human Bace2 protein (Homo sapiens, UniProt Q9Y5Z0) pIC50 equal to 8.00

Record COc1cnc(C(=O)Nc2ccc(F)c([C@@]3(C)N=C(N)[C@@]4(CF)CC[C@@H]3S4(=O)=O)c2)c(C)n1 [Example 76] has human Bace2 protein (Homo sapiens, UniProt Q9Y5Z0) pIC50 equal to 8.40

Record COc1cnc2c(Nc3ccc(F)c([C@@]4(C)N=C(N)[C@@]5(C)CC[C@@H]4S5(=O)=O)c3)ncc(F)c2c1 [Example 78] has human Bace2 protein (Homo sapiens, UniProt Q9Y5Z0) pIC50 equal to 8.30

Record C[C@]1(c2cc(Nc3nccc4nc(C(F)(F)F)cnc34)ccc2F)N=C(N)[C@@]2(CF)CC[C@@H]1S2(=O)=O [Example 55] has human Bace2 protein (Homo sapiens, UniProt Q9Y5Z0) pIC50 equal to 7.62

This collection of values is drawn from patent US9096615B2.
